System: 3T3 fibroblast cells
Assay: In vitro phototoxicity assay (neutral red; UV light-treated vs dark control plates)
Type: cell-based
Settings: UV light 50 minutes
MEASURED PROPERTY: Photo Toxicity UV Tox50

> print(dat)
                                    compound        measured.property  assay.value
 1  CC1CCN(CC(=O)c2ccc(O)c3c2C[C@H]2C[C@H]4[C@H](N(C)C)C(O)=C(C(N)=O)C(=O)[C@@]4(O)C(O)=C2C3=O)CC1  Photo Toxicity UV Tox50   >135.66 µM
 2  CN(C)[C@@H]1C(O)=C(C(N)=O)C(=O)[C@@]2(O)C(O)=C3C(=O)c4c(O)ccc(-c5cccc(C(=O)NCCN6CCCC6)c5)c4C[C@H]3C[C@@H]12  Photo Toxicity UV Tox50   >127.91 µM
 3  C=CCNCC(=O)c1ccc(O)c2c1C[C@H]1C[C@H]3[C@H](N(C)C)C(O)=C(C(N)=O)C(=O)[C@@]3(O)C(O)=C1C2=O  Photo Toxicity UV Tox50   >121.69 µM
 4  CN(C)[C@@H]1C(O)=C(C(N)=O)C(=O)[C@@]2(O)C(O)=C3C(=O)c4c(O)ccc(-c5cccc(C(=O)NCCO)c5)c4C[C@H]3C[C@@H]12  Photo Toxicity UV Tox50   >146.56 µM
 5  CN(C)[C@@H]1C(O)=C(C(N)=O)C(=O)[C@@]2(O)C(O)=C3C(=O)c4c(O)ccc(-c5cccc(C(N)=O)c5)c4C[C@H]3C[C@@H]12  Photo Toxicity UV Tox50   >156.64 µM
 6  COCCNCc1ccoc1-c1ccc(O)c2c1C[C@H]1C[C@H]3[C@H](N(C)C)C(O)=C(C(N)=O)C(=O)[C@@]3(O)C(O)=C1C2=O  Photo Toxicity UV Tox50   >140.51 µM
 7  COC(C)CNCC(=O)c1ccc(O)c2c1C[C@H]1C[C@H]3[C@H](N(C)C)C(O)=C(C(N)=O)C(=O)[C@@]3(O)C(O)=C1C2=O (stereo partly drawn)  Photo Toxicity UV Tox50   >145.98 µM
 8  CN(C)[C@H]1C(O)=C(C(N)=O)C(=O)[C@@]2(O)C(O)=C3C(=O)c4c(O)ccc(-c5cccc(CCCN6CCCCC6)c5)c4C[C@H]3C[C@@H]12  Photo Toxicity UV Tox50     33.41 µM
 9  CC(=O)N1CCN(CC(=O)c2ccc(O)c3c2C[C@H]2C[C@H]4[C@H](N(C)C)C(O)=C(C(N)=O)C(=O)[C@@]4(O)C(O)=C2C3=O)CC1  Photo Toxicity UV Tox50   >144.92 µM
10  CN(C)[C@@H]1C(O)=C(C(N)=O)C(=O)[C@@]2(O)C(O)=C3C(=O)c4c(O)ccc(C(=O)CNCC(F)(F)F)c4C[C@H]3C[C@@H]12  Photo Toxicity UV Tox50   >151.65 µM

---

Listing: IC50 at 24 h of selected molecules
Experiment: in vitro
Type: cell-based
Details: Chinese hamster, Cytotox. CHO-K1
MEASURED PROPERTY: IC50 at 24 h

> print(dat)
                           structure.string  assay.value
1  CN(C)[C@@H]1C(O)=C(C(N)=O)C(=O)[C@@]2(O)C(O)=C3C(=O)c4c(O)ccc(-c5cccc(C(=O)NCCN6CCCCC6)c5)c4C[C@H]3C[C@@H]12      > 41 µM
2  CN(C)[C@@H]1C(O)=C(C(N)=O)C(=O)[C@@]2(O)C(O)=C3C(=O)c4c(O)ccc(-c5ccc(CNCc6cccnc6)o5)c4C[C@H]3C[C@@H]12      > 26 µM
3  CN(C)CCCCNC(=O)c1cccc(-c2ccc(O)c3c2C[C@H]2C[C@H]4[C@H](N(C)C)C(O)=C(C(N)=O)C(=O)[C@@]4(O)C(O)=C2C3=O)c1    > 41.7 µM
4  COc1ccc(CN(C)C)cc1-c1ccc(O)c2c1C[C@H]1C[C@H]3[C@H](N(C)C)C(O)=C(C(N)=O)C(=O)[C@@]3(O)C(O)=C1C2=O     > 146 µM
5  CN(C)Cc1ccc(-c2ccc(O)c3c2C[C@H]2C[C@H]4[C@H](N(C)C)C(O)=C(C(N)=O)C(=O)[C@@]4(O)C(O)=C2C3=O)[nH]1     > 148 µM
6  CN(C)CC/C(=N\OC(C)(C)C)c1ccc(O)c2c1C[C@H]1C[C@H]3[C@H](N(C)C)C(O)=C(C(N)=O)C(=O)[C@@]3(O)C(O)=C1C2=O      34.6 µM

---

System: 3T3 fibroblast cells
Assay: In vitro phototoxicity assay (neutral red; UV light-treated vs dark control plates)
Type: cell-based
Conditions: dark control plate
A collection of compounds and their measured Photo Toxicity Dark Tox50
MEASURED PROPERTY: Photo Toxicity Dark Tox50

> print(dat)
                            structure.string  assay.value
 1  CC(=O)N1CCN(CC(=O)c2ccc(O)c3c2C[C@H]2C[C@H]4[C@H](N(C)C)C(O)=C(C(N)=O)C(=O)[C@@]4(O)C(O)=C2C3=O)CC1   >144.92 µM
 2  CN(C)[C@@H]1C(O)=C(C(N)=O)C(=O)[C@@]2(O)C(O)=C3C(=O)c4c(O)ccc(C(=O)CN5CCN(C6CCCCC6)CC5)c4C[C@H]3C[C@@H]12   >122.93 µM
 3  CC(C)N1CCN(CC(=O)c2ccc(O)c3c2C[C@H]2C[C@H]4[C@H](N(C)C)C(O)=C(C(N)=O)C(=O)[C@@]4(O)C(O)=C2C3=O)CC1   >130.05 µM
 4  COCC(=O)c1ccc(O)c2c1C[C@H]1C[C@H]3[C@H](N(C)C)C(O)=C(C(N)=O)C(=O)[C@@]3(O)C(O)=C1C2=O    >172.1 µM
 5  CN(C)[C@@H]1C(O)=C(C(N)=O)C(=O)[C@@]2(O)C(O)=C3C(=O)c4c(O)ccc(-c5cccc(C(N)=O)c5)c4C[C@H]3C[C@@H]12   >156.64 µM
 6  CN(C)[C@@H]1C(O)=C(C(N)=O)C(=O)[C@@]2(O)C(O)=C3C(=O)c4c(O)ccc(C(=O)CNCc5ccccn5)c4C[C@H]3C[C@@H]12   >133.75 µM
 7  CN(C)CCN(C)C(=O)c1cccc(-c2ccc(O)c3c2C[C@H]2C[C@H]4[C@H](N(C)C)C(O)=C(C(N)=O)C(=O)[C@@]4(O)C(O)=C2C3=O)c1   >137.36 µM
 8  CN(C)CCC(=O)c1ccc(O)c2c1C[C@H]1C[C@H]3[C@H](N(C)C)C(O)=C(C(N)=O)C(=O)[C@@]3(O)C(O)=C1C2=O   >153.46 µM
 9  CN(C)CC(=O)N1CC=C(c2ccc(O)c3c2C[C@H]2C[C@H]4[C@H](N(C)C)C(O)=C(C(N)=O)C(=O)[C@@]4(O)C(O)=C2C3=O)CC1   >145.35 µM
10  CN(C)CCN(C)Cc1cccc(-c2ccc(O)c3c2C[C@H]2C[C@H]4[C@H](N(C)C)C(O)=C(C(N)=O)C(=O)[C@@]4(O)C(O)=C2C3=O)c1   >126.03 µM
11  CN(C)[C@@H]1C(O)=C(C(N)=O)C(=O)[C@@]2(O)C(O)=C3C(=O)c4c(O)ccc(-c5cccc(CCCN6CCCCC6)c5)c4C[C@H]3C[C@@H]12      >200 µM

---

This section presents molecules with their documented MIC values.
Test system: gram negative bacteria
Assay: In vitro anti-bacterial activity assay (broth dilution MIC), gram negative bacteria
Type: cell-based, E. coli
Conditions: Escherichia coli, 18 h, E. coli MG 1655; read-out: Median MIC's G− E. coli MG 1655
Experimental: Bacterial infections may be caused by a wide variety of gram positive and gram negative bacteria. Some of the compounds of the invention are useful as antibiotics against organisms which are resistant and/or sensitive to other tetracycline compounds. […] 50 μl of the cell suspensions were added to each well of microtiter plates. […] The plates were read with a microplate reader and were visually inspected when necessary. […]
MEASURED PROPERTY: MIC (µg/mL)

> print(dat)
                           structure.string        target.or.system  unit.descriptor  assay.value
1  CN(C)CC(=O)Nc1cccc(-c2ccc(O)c3c2C[C@H]2C[C@H]4[C@H](N(C)C)C(O)=C(C(N)=O)C(=O)[C@@]4(O)C(O)=C2C3=O)c1  gram negative bacteria            µg/mL            2
2  CN(C)c1cc(-c2cccc(C(N)=O)c2)c(O)c2c1C[C@H]1C[C@H]3[C@H](N(C)C)C(O)=C(C(N)=O)C(=O)[C@@]3(O)C(O)=C1C2=O  gram negative bacteria            µg/mL           64
3  CN(C)CCNC(=O)c1cccc(-c2ccc(O)c3c2C[C@H]2C[C@H]4[C@@H](N(C)C)C(O)=C(C(N)=O)C(=O)[C@@]4(O)C(O)=C2C3=O)c1  gram negative bacteria            µg/mL           64
